# Experimental details: physchem
# Run conditions: organic solvent or mixture, thermodynamic from solid

# Compound, solubility (mg/mL)
data = [
    ("CC(=O)O[C@H]1C(=O)[C@@]2(C)[C@H]([C@H](OC(=O)c3ccccc3)[C@]3(O)C[C@H](OC(=O)[C@H](O)[C@@H](NC(=O)c4ccccc4)c4ccccc4)C(C)=C1C3(C)C)[C@]1(OC(C)=O)CO[C@@H]1C[C@@H]2O [Paclitaxel]", 250),
]
